ASSAY_SUMMARY: 3-kDa dextran macromolecule release assay, POPC
Type: biochemical
TEST_SETTINGS: P:L = 1:1000, pH 7 phosphate buffer
3-kDa Dextran release, POPC by entry:
Return type: number; implicit unit %.

// solved cases for 3-kDa Dextran release, POPC follow
H-GLDDLAKLLLKLAGW-NH2 [Peptide 25B2]: -2
H-GLLDLLKLLLKLAGW-NH2 [Peptide 28H6]: 38
H-GLADLAKLLLKLLGW-NH2 [Peptide 7F3]: -3

Now for a further substance.
Consider the substance H-GLDDLLKALLKAAGW-NH2 [Peptide 4H9] . State its measured 3-kDa Dextran release, POPC.
-4
